# log10 Ki against Melanocortin receptor 4 (Homo sapiens), merged from multiple literature sources
MEASUREMENT TYPE: log10 Ki (log10 of the value in nM)

                                   molecule  result_number
0  CC(=O)N[C@@H](Cc1ccc(O)cc1)C(=O)N[C@H](Cc1ccccc1)C(=O)N1C[C@@H](OCc2ccc3ccccc3c2)C[C@@H]1CCCN=C(N)N           2.39
1  CC(C)CC(=O)c1ccccc1N1CCN(C(=O)[C@@H](Cc2ccc(Cl)cc2Cl)NC(=O)C(C)(C)N)CC1           2.04
2  CCN(CC)CCCC(C)N=C(N)NC(=O)c1ccsc1CCc1cc(Br)ccc1OC (stereo not drawn)           1.04
3  N=C(N)NCCC[C@@H]1NC(=O)[C@H](Cc2ccccc2)NC(=O)[C@H](Cc2cnc[nH]2)NC(=O)CCCCCCCNC(=O)[C@H](Cc2c[nH]c3ccccc23)NC1=O           3.65
4  CC(C)C[C@H](NC(=O)CCN(C)C)c1cc(Cl)ccc1N1CCN(C(=O)[C@H](C)Cc2ccc(Cl)cc2)CC1           0.53
5  CNC(=O)[C@H](Cc1ccc2ccccc2c1)NC(=O)[C@H](CCCN=C(N)N)NC(=O)[C@H](CC[C@@H]1Cc2ccccc2CN1)Cc1ccccc1           2.34
6  O=C(Cc1ccccc1)NCC1(N2CCN(C(=O)[C@@H](Cc3ccc(Cl)cc3)NC(=O)c3ccc(F)cc3)CC2)CCCCC1           1.99
7  Cc1ccc(N2CCN(C(=O)[C@@H]3CN(C4CCOCC4)C[C@H]3c3ccc(Cl)cc3)CC2)c([C@@H](NC(=O)[C@H](C)N)C(C)C)c1           0.00

---

# pKi against Melanocortin receptor 4 (Homo sapiens), merged from multiple literature sources
pKi: −log10 of the molar value.
Rule: pKi of 7 or more gives TRUE; anything lower gives FALSE.

>>> df
                                   compound  group_label
0  NCCC(=O)N[C@H](Cc1ccc(Cl)cc1Cl)C(=O)N1CCN(c2ncccc2CNCCc2ccccc2F)CC1         TRUE
1  CNC(=O)[C@H](Cc1ccc2ccccc2c1)NC(=O)[C@H](CCCN=C(N)N)NC(=O)[C@H](N)Cc1ccccc1        FALSE
2  CC(C)C[C@H](NC(=O)CN)c1cc(C(F)(F)F)ccc1N1CCN(C(=O)CCc2ccc(Cl)cc2Cl)CC1         TRUE
3  CS(=O)(=O)N1CCc2cccc(N3CCN(C(=O)[C@@H](Cc4ccc(Cl)cc4)NC(=O)[C@H]4Cc5ccccc5CN4)CC3)c2C1        FALSE
4  NCc1ccccc1N1CCN(C(=O)[C@@H](Cc2ccc(Cl)cc2)NC(=O)[C@H]2Cc3ccccc3CN2)CC1        FALSE
5  CCN(CC)CCCC(C)/N=C(\NC(=O)c1cccc(F)c1CCc1cc(Br)ccc1OC)NC(C)C (stereo not given)        FALSE
6  O=C(N[C@H](Cc1ccc(Cl)cc1)C(=O)N1CCN(c2ccccc2Cn2cncn2)CC1)[C@H]1Cc2ccccc2CN1        FALSE

---

# log10(Ki) against Melanocortin receptor 4 (Homo sapiens, UniProt P32245), merged from multiple literature sources
# Sequence (P32245 whole entry): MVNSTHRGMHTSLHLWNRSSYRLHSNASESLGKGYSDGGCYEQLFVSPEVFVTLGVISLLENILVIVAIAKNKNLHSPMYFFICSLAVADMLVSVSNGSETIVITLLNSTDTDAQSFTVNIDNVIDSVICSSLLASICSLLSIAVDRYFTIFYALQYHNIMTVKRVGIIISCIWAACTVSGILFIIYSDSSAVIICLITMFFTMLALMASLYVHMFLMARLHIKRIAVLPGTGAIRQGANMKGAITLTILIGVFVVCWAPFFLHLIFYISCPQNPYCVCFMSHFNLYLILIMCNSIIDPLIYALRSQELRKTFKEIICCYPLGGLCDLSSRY
MEASUREMENT TYPE: log10(Ki) (log10 of the value in nM)

                                   compound  result_number
0  COc1ccccc1CNC(=O)NCc1cccnc1N1CCN(C(=O)[C@@H](Cc2ccc(Cl)cc2Cl)NC(=O)CCN)CC1           2.75
1  CN(CCc1ccccn1)Cc1ccccc1N1CCN(C(=O)[C@@H](Cc2ccc(Cl)cc2)NC(=O)[C@H]2Cc3ccccc3CN2)CC1           1.54
2  N=C(N)NCCC[C@H](CC1CCCCC1)NC(=O)[C@H](N)Cc1ccc(F)cc1           3.83
3  CC(C)C[C@H](N)c1cc(C(F)(F)F)ccc1N1CCN(C(=O)COc2ccc(Cl)c(Cl)c2)CC1           3.40
4  O=C(Cc1ccccc1)NCC1(N2CCN(C(=O)[C@@H](Cc3ccc(Cl)cc3)NC(=O)C3CCC3)CC2)CCCCC1           2.15
5  CC(C)COC(=O)N[C@H](Cc1ccc(Cl)cc1)C(=O)N1CCN(C2(CNC(=O)Cc3ccccc3)CCCCC2)CC1           2.45
6  NCCC(=O)N[C@H](Cc1ccc(Cl)cc1Cl)C(=O)N1CCN(c2ccccc2C(O)CCc2ccccc2)CC1 (some centres not stated)           1.51

---

# Ki against UniProt:P32245, merged from multiple literature sources
MEASUREMENT TYPE: Ki

In [3]: df
Out[3]:
                                   molecule  measurement_type  result
0  Cc1ccc(CC(C)C(=O)N2CCN(c3ccc(C(F)(F)F)cc3[C@@H](N)CC(C)C)CC2)c(C)c1 (stereo partly drawn)                Ki   92 nM
1  NCCC(=O)N[C@H](Cc1ccc(Cl)cc1Cl)C(=O)N1CCN(c2ncccc2CNCc2ccccc2F)CC1                Ki  130 nM
2  CN(Cc1cccnc1)Cc1ccccc1N1CCN(C(=O)[C@@H](Cc2ccc(Cl)cc2)NC(=O)[C@H]2Cc3ccccc3CN2)CC1                Ki   77 nM
